- TARGET_UNDER_TEST: UniProtKB P51531
- ASSAY_METHOD_TEXT: MSD SMARCA2 degradation in NCI-H1299 cell line (24 h)
- Assay type: cell-based
- Parameters: HC: NCI-H1299 cells treated with DMSO; host or cells: NCI-H1299
- MEASUREMENT_PARAMETERS: NCI-H1299 cells, read-out: SMARCA2 MSD H1299 degradation 24 h: External Abs-DC50
DC50 listing for selected compounds.

Consider the worked cases shown below.
| COMPOUND | DC50 |
| --- | --- |
| Cn1c(=O)n(C2CCC(=O)NC2=O)c2ccc(CCCCCCCc3nccc(N4C5CCC4CN(c4cc(-c6ccccc6O)nnc4N)C5)n3)cc21 (stereo not drawn) | 100 to 500 nM |
| Cc1ncsc1-c1ccc(CNC(=O)[C@@H]2C[C@@H](O)CN2C(=O)[C@@H](NC(=O)CCCCN2CCC[C@@H](Cn3cc(-c4cc(-c5ccccc5O)nnc4N)cn3)C2)C(C)(C)C)cc1 | 100 to 500 nM |

Consider now this further compound.
Value of DC50 reported for the compound COc1cc(C(=O)NCCCCCCCNCc2ccc(N3CCN(c4cc(-c5ccccc5O)nnc4N)CC3)cc2)ccc1NC(=O)[C@@H]1N[C@@H](CC(C)(C)C)[C@](C#N)(c2ccc(Cl)cc2F)[C@H]1c1cccc(Cl)c1F is > 1000 nM

----------
Dmax listing for selected molecules.
- TARGET_UNDER_TEST: SMARCA4 (Homo sapiens)
- Construct: SMARCA2 and SMARCA4 protein degradation in MV4-11 cells; endogenous in cells; host or cells: MV4-11
- ASSAY_METHOD_TEXT: SMARCA4 Western blot MV4-11 degradation
- Type: cell-based
- MEASUREMENT_PARAMETERS: MV4-11, MV4-11 cells, 24 h, read-out: SMARCA4 WB MV411 degradation 24 h: Average Dmax %
- Experimental: Cells were seeded into 6-well plates (MV4-11: 4×10^6 cells/well/1 ml) and 1 ml of 2× compound solution was added into the well to make the final concentration and the plates were mixed well and incubated for 24 hours (No cytotoxicity was observed). The cell were collected with media and spun at 3000 rpm for 5 minutes. […] The membrane was washed three times with TBST, 5 minutes each and lastly the LiCOR was read. […]

Consider the worked cases shown below.
| SMILES_DATA | Dmax |
| --- | --- |
| Cc1ncsc1-c1ccc(CNC(=O)[C@@H]2C[C@@H](O)CN2C(=O)[C@@H](NC(=O)Cc2ccc(-c3cnc(N4C5CCC4CN(c4cc(-c6ccccc6O)nnc4N)C5)nc3)cc2)C(C)(C)C)cc1 | > 90% |
| Cc1ncsc1-c1ccc(CNC(=O)[C@@H]2C[C@@H](O)CN2C(=O)[C@@H](NC(=O)CCN(C)CC#Cc2cnc(N3C4CCC3CN(c3cc(-c5ccccc5O)nnc3N)C4)nc2)C(C)(C)C)cc1 | > 90% |
| Cc1ncsc1-c1ccc(CNC(=O)[C@@H]2C[C@@H](O)CN2C(=O)[C@@H](NC(=O)[C@@H]2CC=C(c3cnc(N4C5CCC4CN(c4cc(-c6ccccc6O)nnc4N)C5)nc3)CC2)C(C)(C)C)cc1 | 70 to 90% |
| Cc1ncsc1-c1ccc(CNC(=O)[C@@H]2C[C@@H](O)CN2C(=O)[C@@H](NC(=O)N2CCC(c3cnc(N4C5CCC4CN(c4cc(-c6ccccc6O)nnc4N)C5)nc3)CC2)C(C)(C)C)cc1 | > 90% |

Consider now this further molecule.
Value of Dmax reported for the molecule Cc1ncsc1-c1ccc(CNC(=O)[C@@H]2C[C@@H](O)CN2C(=O)[C@@H](NC(=O)CN2CCC(c3cnc(N4C5CCC4CN(c4cc(-c6ccccc6O)nnc4N)C5)nc3)CC2)C(C)(C)C)c(C(F)(F)F)c1 is 70 to 90%

----------
- TARGET_UNDER_TEST: SMARCA2 (Homo sapiens, UniProt P51531)
- Sequence (P51531 whole entry): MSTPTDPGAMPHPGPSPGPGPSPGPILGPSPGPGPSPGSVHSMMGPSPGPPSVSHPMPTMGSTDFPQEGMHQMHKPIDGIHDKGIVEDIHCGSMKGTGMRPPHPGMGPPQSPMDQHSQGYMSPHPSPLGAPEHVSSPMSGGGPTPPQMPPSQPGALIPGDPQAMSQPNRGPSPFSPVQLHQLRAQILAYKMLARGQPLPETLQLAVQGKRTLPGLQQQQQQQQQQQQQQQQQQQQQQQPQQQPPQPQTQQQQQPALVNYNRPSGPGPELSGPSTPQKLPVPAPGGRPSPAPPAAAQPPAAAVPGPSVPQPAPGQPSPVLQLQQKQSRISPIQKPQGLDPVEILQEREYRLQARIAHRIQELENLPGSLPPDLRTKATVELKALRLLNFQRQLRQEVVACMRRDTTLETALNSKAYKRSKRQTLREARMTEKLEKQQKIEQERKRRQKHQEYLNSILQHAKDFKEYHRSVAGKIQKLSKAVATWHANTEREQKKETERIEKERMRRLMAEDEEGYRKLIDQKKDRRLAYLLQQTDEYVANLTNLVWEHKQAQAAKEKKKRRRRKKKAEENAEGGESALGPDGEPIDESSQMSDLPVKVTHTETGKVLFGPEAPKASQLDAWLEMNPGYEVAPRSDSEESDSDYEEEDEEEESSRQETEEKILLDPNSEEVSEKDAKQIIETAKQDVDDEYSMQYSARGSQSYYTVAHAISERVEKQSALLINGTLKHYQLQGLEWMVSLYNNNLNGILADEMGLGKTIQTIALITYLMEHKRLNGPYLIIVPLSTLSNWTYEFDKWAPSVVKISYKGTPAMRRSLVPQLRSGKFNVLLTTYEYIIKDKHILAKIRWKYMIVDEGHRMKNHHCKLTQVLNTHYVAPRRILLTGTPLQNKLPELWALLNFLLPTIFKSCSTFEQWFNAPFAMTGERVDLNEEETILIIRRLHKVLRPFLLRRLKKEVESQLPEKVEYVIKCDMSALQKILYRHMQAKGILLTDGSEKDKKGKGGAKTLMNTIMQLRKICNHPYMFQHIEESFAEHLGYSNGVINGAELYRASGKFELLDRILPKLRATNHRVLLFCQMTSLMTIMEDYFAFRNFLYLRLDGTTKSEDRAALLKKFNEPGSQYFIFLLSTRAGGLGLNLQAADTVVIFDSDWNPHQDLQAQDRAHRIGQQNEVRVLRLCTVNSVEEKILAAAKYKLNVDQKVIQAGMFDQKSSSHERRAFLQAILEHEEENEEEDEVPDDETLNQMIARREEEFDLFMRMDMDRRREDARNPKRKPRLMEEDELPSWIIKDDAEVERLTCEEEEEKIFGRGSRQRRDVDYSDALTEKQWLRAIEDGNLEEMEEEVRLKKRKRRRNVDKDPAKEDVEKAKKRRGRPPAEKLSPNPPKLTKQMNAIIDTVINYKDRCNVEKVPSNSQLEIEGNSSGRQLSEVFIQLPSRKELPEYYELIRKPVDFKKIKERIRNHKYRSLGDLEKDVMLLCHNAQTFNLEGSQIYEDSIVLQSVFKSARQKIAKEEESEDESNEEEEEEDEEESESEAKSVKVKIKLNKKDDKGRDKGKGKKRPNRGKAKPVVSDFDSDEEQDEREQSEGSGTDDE
- ASSAY_METHOD_TEXT: SMARCA2 Western blot MV4-11 degradation
- Format: cell-based
- MEASUREMENT_PARAMETERS: MV4-11 cells, 24 h, read-out: SMARCA2 WB MV411 degradation 24 h: Average external-Abs DC50
QUANTITY_MEASURED: DC50

Consider the worked cases shown below.
| MOLECULE | TARGET_UNDER_TEST | QUANTITY_MEASURED | REPORTED_MEASUREMENT |
| --- | --- | --- | --- |
| CC(C)(C)[C@H](NC(=O)[C@H]1CC2(C1)C[C@H](N1CCC(c3cnc(N4C5CCC4CN(c4cc(-c6ccccc6O)nnc4N)C5)nc3)CC1)C2)C(=O)N1C[C@H](O)C[C@H]1C(=O)NOc1ccc(-c2ccccc2F)cc1 (some centres unmarked) | SMARCA2 (Homo sapiens, UniProt P51531) | DC50 | > 1000 nM |
| Cc1ncsc1-c1ccc(CNC(=O)[C@@H]2C[C@@H](O)CN2C(=O)[C@@H](NC(=O)CN2CCC(c3cnc(N4C5CCC4CN(c4cc(-c6ccccc6O)nnc4N)C5)nc3)CC2)C(C)(C)C)c(C(F)(F)F)c1 | SMARCA2 (Homo sapiens, UniProt P51531) | DC50 | < 100 nM |
| Cc1ncsc1-c1ccc(CNC(=O)[C@@H]2C[C@@H](O)CN2C(=O)[C@@H](NC(=O)[C@H]2CC[C@H](CN3CCC(c4cnc(N5C6CCC5CN(c5cc(-c7ccccc7O)nnc5N)C6)nc4)CC3)CC2)C(C)(C)C)cc1 | SMARCA2 (Homo sapiens, UniProt P51531) | DC50 | < 100 nM |
| Cc1ncsc1-c1ccc(CNC(=O)[C@@H]2C[C@@H](O)CN2C(=O)[C@@H](NC(=O)C2CC(N3CCC(n4cc(-c5cc(-c6ccccc6O)nnc5N)cn4)CC3)C2)C(C)(C)C)cc1 (some centres unmarked) | SMARCA2 (Homo sapiens, UniProt P51531) | DC50 | < 100 nM |

Lab entry: SMARCA2 (Homo sapiens, UniProt P51531) assay, molecule Cc1ncsc1-c1ccc(CNC(=O)[C@@H]2C[C@@H](O)CN2C(=O)[C@@H](NC(=O)[C@H]2CC[C@H](Cc3cnc(N4C5CCC4CN(c4cc(-c6ccccc6O)nnc4N)C5)nc3)CC2)C(C)(C)C)cc1 , DC50 = < 100 nM

----------
Dmax listing for selected compounds.
- TARGET_UNDER_TEST: SMARCA4 (Homo sapiens, UniProt P51532)
- Construct: SMARCA2 and SMARCA4 protein degradation in MV4-11 cells; endogenous in cells; host or cells: MV4-11
- Sequence (P51532 whole entry): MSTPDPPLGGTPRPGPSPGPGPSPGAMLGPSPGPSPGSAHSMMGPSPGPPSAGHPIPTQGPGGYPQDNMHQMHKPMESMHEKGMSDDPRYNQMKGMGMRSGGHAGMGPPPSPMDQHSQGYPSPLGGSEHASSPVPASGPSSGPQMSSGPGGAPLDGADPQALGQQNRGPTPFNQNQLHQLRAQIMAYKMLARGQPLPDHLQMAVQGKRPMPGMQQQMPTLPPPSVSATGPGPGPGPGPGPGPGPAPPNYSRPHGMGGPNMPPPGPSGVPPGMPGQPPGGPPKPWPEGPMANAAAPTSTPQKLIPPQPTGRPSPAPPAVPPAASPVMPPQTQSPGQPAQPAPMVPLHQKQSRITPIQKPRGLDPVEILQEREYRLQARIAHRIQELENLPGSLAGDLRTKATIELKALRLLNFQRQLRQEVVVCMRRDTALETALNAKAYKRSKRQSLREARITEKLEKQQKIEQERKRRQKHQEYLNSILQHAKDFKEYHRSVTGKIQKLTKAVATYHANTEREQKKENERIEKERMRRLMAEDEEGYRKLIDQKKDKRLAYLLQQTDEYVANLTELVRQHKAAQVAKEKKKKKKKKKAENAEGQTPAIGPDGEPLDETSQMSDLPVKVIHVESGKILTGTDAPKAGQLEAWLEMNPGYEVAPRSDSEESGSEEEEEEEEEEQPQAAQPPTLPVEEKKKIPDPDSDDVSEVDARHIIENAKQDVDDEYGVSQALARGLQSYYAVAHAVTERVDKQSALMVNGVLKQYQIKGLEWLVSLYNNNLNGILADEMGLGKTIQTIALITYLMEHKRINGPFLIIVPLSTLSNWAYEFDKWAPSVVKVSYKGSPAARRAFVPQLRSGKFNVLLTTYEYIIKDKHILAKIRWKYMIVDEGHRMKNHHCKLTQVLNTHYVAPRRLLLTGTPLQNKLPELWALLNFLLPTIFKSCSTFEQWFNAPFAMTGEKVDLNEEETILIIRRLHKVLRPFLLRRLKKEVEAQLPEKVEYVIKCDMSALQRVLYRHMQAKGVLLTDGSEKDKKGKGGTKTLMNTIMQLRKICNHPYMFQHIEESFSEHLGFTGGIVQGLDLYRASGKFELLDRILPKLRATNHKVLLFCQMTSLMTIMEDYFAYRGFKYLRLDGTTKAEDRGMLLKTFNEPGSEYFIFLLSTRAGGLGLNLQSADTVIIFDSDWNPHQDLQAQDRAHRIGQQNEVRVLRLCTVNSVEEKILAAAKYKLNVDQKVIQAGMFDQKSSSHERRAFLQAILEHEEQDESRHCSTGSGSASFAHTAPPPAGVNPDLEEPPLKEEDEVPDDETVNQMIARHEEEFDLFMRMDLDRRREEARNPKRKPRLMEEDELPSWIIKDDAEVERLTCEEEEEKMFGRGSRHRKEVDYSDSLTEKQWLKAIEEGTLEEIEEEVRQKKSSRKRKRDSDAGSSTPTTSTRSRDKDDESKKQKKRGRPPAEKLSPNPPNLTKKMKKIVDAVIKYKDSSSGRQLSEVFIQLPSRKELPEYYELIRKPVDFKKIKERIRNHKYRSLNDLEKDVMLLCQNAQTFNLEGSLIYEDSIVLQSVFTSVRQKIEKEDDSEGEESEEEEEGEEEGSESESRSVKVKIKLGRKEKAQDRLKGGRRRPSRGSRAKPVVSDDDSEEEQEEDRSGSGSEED
- ASSAY_METHOD_TEXT: SMARCA4 Western blot MV4-11 degradation
- Format: cell-based
- MEASUREMENT_PARAMETERS: MV4-11, MV4-11 cells, 24 h, read-out: SMARCA4 WB MV411 degradation 24 h: Average Dmax %

Consider the worked cases shown below.
| COMPOUND | Dmax |
| --- | --- |
| Cn1c(=O)n(C2CCC(=O)NC2=O)c2cccc(C3CCC(N4CCC(n5cc(-c6cc(-c7ccccc7O)nnc6N)cn5)CC4)CC3)c21 (centres unmarked) [I-321] | > 90% |
| Cc1ncsc1-c1ccc(CNC(=O)[C@@H]2C[C@@H](O)CN2C(=O)[C@@H](NC(=O)[C@H]2CC[C@H](CN3CCC(n4cc(-c5cc(-c6ccccc6O)nnc5N)cn4)CC3)CC2)C(C)(C)C)cc1 [I-403] | < 50% |
| Cn1c(=O)n(C2CCC(=O)NC2=O)c2cccc(CCCN3CCCC(c4cnc(N5C6CCC5CN(c5cc(-c7ccccc7O)nnc5N)C6)nc4)C3)c21 (centres unmarked) [I-292] | > 90% |
| Cc1ncsc1-c1ccc(CNC(=O)[C@@H]2C[C@@H](O)CN2C(=O)[C@@H](NC(=O)CCN2CCN(Cc3ccc(-c4cc(-c5ccccc5O)nnc4N)cc3)CC2)C(C)(C)C)cc1 [I-474] | 70 to 90% |

Consider now this further compound.
Value of Dmax reported for the compound Cc1ncsc1-c1ccc(CNC(=O)[C@@H]2C[C@@H](O)CN2C(=O)[C@@H](NC(=O)CN2CCC(Cn3cc(-c4cc(-c5ccccc5O)nnc4N)cn3)CC2)C(C)(C)C)cc1 [I-465] is < 50%

----------
- TARGET_UNDER_TEST: SMARCA2 (Homo sapiens, UniProt P51531)
- ASSAY_METHOD_TEXT: MSD SMARCA2 degradation in NCI-H1299 cell line (24 h)
- Format: cell-based
- Set-up: HC: NCI-H1299 cells treated with DMSO; host or cells: NCI-H1299
- MEASUREMENT_PARAMETERS: NCI-H1299 cells, read-out: SMARCA2 MSD H1299 degradation 24 h: External Abs-DC50
DC50 listing for selected compounds.

| COMPOUND | DC50 |
| --- | --- |
| CN(Cc1ccc(N2CCN(c3cc(-c4ccccc4O)nnc3N)CC2)cc1)C1CCN(Cc2cccc3c2n(C)c(=O)n3C2CCC(=O)NC2=O)CC1 (stereo not drawn) | 100 to 500 nM |
| CN(CCCc1ccc2c(c1)n(C)c(=O)n2C1CCC(=O)NC1=O)Cc1ccc(N2CCN(c3cc(-c4ccccc4O)nnc3N)CC2)cc1 (stereo not drawn) | > 1000 nM |

Consider now this further compound.
Value of DC50 reported for the compound Cn1c(=O)n(C2CCC(=O)NC2=O)c2ccc(CCCN3CCO[C@@H](CNCc4ccc(N5CCN(c6cc(-c7ccccc7O)nnc6N)CC5)cc4)C3)cc21 (stereo partly drawn) is 501 to 1000 nM
